Measured melting point, listed per entry for reference.
measured.parameter: melting point

[[record]]
chem_smiles = "Cc1[nH]nnc1C(=O)N[C@@H]1CCC[C@H](Nc2nc(-c3c[nH]c4c(F)cc(F)cc34)ncc2F)C1"
measured_parameter = "melting point"
result = "256.6 °C"

[[record]]
chem_smiles = "Nc1cc(C(=O)N[C@@H]2CCC[C@H](Nc3nc(-c4c[nH]c5c(F)cc(F)cc45)ncc3F)C2)ncn1"
measured_parameter = "melting point"
result = "228 °C"

[[record]]
chem_smiles = "CC(=O)NCc1cc(F)c(N[C@H]2CCC[C@@H](NC(=O)c3cn(C)cn3)C2)nc1-c1c[nH]c2c(F)cc(F)cc12"
measured_parameter = "melting point"
result = "> 260 °C"

[[record]]
chem_smiles = "Cn1nc(C(=O)N[C@@H]2CCC[C@H](Nc3nc(-c4c[nH]c5c(F)cc(F)cc45)ncc3F)C2)cc1N"
measured_parameter = "melting point"
result = "253.4 °C"

[[record]]
chem_smiles = "Nc1n[nH]c(C(=O)N[C@@H]2CCC[C@H](Nc3nc(-c4c[nH]c5c(F)cc(Cl)cc45)ncc3F)C2)n1"
measured_parameter = "melting point"
result = "293.5 °C"

[[record]]
chem_smiles = "CC(C)(c1cccs1)[C@H](CC(=O)O)Nc1nc(-c2c[nH]c3c(F)cc(F)cc23)ncc1F"
measured_parameter = "melting point"
result = "271.1 °C"

[[record]]
chem_smiles = "N#Cc1cc(F)c2[nH]cc(-c3ncc(F)c(N[C@H]4C5CCC(CC5)[C@@H]4C(=O)O)n3)c2c1"
measured_parameter = "melting point"
result = "211.6 °C"


###

Measured melting point, listed per entry for reference.
measured.parameter: melting point (°C)

[[record]]
compound = "Cc1cc(C(=O)N[C@@H]2CCC[C@H](Nc3nc(-c4c[nH]c5c(F)cc(F)cc45)ncc3F)C2)on1"
cmp = "="
quantitative_readout = 278.5

[[record]]
compound = "Cn1ncnc1C(=O)N[C@@H]1CCC[C@H](Nc2nc(-c3c[nH]c4c(F)cc(F)cc34)ncc2F)C1"
cmp = "="
quantitative_readout = 172.7

[[record]]
compound = "Cc1scnc1C(=O)N[C@@H]1CCC[C@H](Nc2nc(-c3c[nH]c4c(F)cc(Cl)cc34)ncc2F)C1"
cmp = ">"
quantitative_readout = 300

[[record]]
compound = "O=C(N[C@@H]1CCC[C@H](Nc2nc(-c3c[nH]c4c(F)cc(F)cc34)ncc2F)C1)c1ncn[nH]1"
cmp = "="
quantitative_readout = 289.8

[[record]]
compound = "Cc1cc(C(=O)N[C@@H]2CCC[C@H](Nc3nc(-c4c[nH]c5c(F)cc(F)cc45)c(C#N)cc3F)C2)nn1C"
cmp = "="
quantitative_readout = 235

[[record]]
compound = "Cc1cc(F)c2[nH]cc(-c3ncc(F)c(NC(CC(=O)O)C(C)(C)c4ccn(C)n4)n3)c2c1 (stereo not shown)"
cmp = "="
quantitative_readout = 208.5

[[record]]
compound = "CC(C)(c1ccccn1)C(CC(=O)O)Nc1nc(-c2c[nH]c3c(F)cc(F)cc23)c(C#N)cc1F (stereo not shown)"
cmp = "="
quantitative_readout = 230.8


###

assay: in vitro
measurement.context: dog, TOX MDCK CC50
measured.parameter: CC50 at 3 days (µM)

[[record]]
molecule = "CC(=O)NCc1cc(F)c(N[C@H]2CCC[C@@H](NC(=O)N3CCCC3)C2)nc1-c1c[nH]c2c(F)cc(F)cc12 (racemic)"
output_unit = "µM"
cmp = ">"
quantitative_readout = 25

[[record]]
molecule = "N#Cc1cc(F)c(N[C@H]2CCC[C@@H](NC(=O)N3CCCC3)C2)nc1-c1c[nH]c2c(F)cc(F)cc12 (racemic)"
output_unit = "µM"
cmp = ">"
quantitative_readout = 25

[[record]]
molecule = "Cc1cnc(C(=O)N[C@@H]2CCC[C@H](Nc3nc(-c4c[nH]c5c(F)cc(F)cc45)ncc3F)C2)n1C"
output_unit = "µM"
cmp = "="
quantitative_readout = 7.2

[[record]]
molecule = "COC(C)(C)C(CC(=O)O)Nc1nc(-c2c[nH]c3c(F)cc(F)cc23)c(C#N)cc1F (centres unmarked)"
output_unit = "µM"
cmp = "="
quantitative_readout = 0.9

[[record]]
molecule = "CC1([C@@H](CC(=O)O)Nc2nc(-c3c[nH]c4c(F)cc(F)cc34)c(C#N)cc2F)CCCC1"
output_unit = "µM"
cmp = "="
quantitative_readout = 0.7

[[record]]
molecule = "CC[C@]1(C(=O)O)CCCC[C@@H]1Nc1nc(-c2c[nH]c3c(F)cc(F)cc23)ncc1F (racemic)"
output_unit = "µM"
cmp = "="
quantitative_readout = 8.2

[[record]]
molecule = "CC(C)(C)[C@@H](CO)Nc1nc(-c2c[nH]c3c(F)cc(F)cc23)c(C#N)cc1F"
output_unit = "µM"
cmp = "="
quantitative_readout = 7

[[record]]
molecule = "Nc1cc(C(=O)N[C@@H]2CCC[C@H](Nc3nc(-c4c[nH]c5c(F)cc(F)cc45)ncc3F)C2)n[nH]1"
output_unit = "µM"
cmp = "="
quantitative_readout = 19.4

[[record]]
molecule = "Cn1cnc(C(=O)N[C@@H]2CCC[C@H](Nc3nc(-c4c[nH]c5c(F)cc(C(F)(F)F)cc45)ncc3F)C2)c1 (racemic)"
output_unit = "µM"
cmp = "="
quantitative_readout = 3.8

[[record]]
molecule = "Cn1ccnc1C(=O)N[C@H]1CCC[C@@H](Nc2nc(-c3c[nH]c4c(F)cc(F)cc34)ncc2F)C1"
output_unit = "µM"
cmp = "="
quantitative_readout = 9.6

[[record]]
molecule = "Cc1cn(C)nc1C(=O)N[C@@H]1CCC[C@H](Nc2nc(-c3c[nH]c4c(F)cc(Cl)cc34)ncc2F)C1"
output_unit = "µM"
cmp = ">"
quantitative_readout = 25

[[record]]
molecule = "Cn1nc(CO)cc1C(=O)N[C@@H]1CCC[C@H](Nc2nc(-c3c[nH]c4c(F)cc(F)cc34)ncc2F)C1 (relative stereo)"
output_unit = "µM"
cmp = ">"
quantitative_readout = 25

[[record]]
molecule = "O=C(N[C@@H]1CCC[C@H](Nc2nc(-c3c[nH]c4c(F)cc(Cl)cc34)ncc2F)C1)c1ccccn1"
output_unit = "µM"
cmp = "="
quantitative_readout = 11

[[record]]
molecule = "N#Cc1cc(F)c2[nH]cc(-c3ncc(F)c(N[C@H]4CCC[C@@H](NC(=O)c5c[nH]nn5)C4)n3)c2c1"
output_unit = "µM"
cmp = ">"
quantitative_readout = 25


###

Test system: MDCK cells
measurement.context: dog, 3 days
measured.parameter: CC50 (µM)

[[record]]
compound = "Cc1cc(C(=O)N[C@@H]2CCC[C@H](Nc3nc(-c4c[nH]c5c(F)cc(F)cc45)ncc3F)C2)nn1C"
target_under_test = "MDCK cells"
output_unit = "µM"
cmp = "="
quantitative_readout = 7.5

[[record]]
compound = "Cc1cc(C(=O)N[C@@H]2CCC[C@H](Nc3nc(-c4c[nH]c5c(F)cc(F)cc45)ncc3F)C2)on1 (racemic) [Compound 91]"
target_under_test = "MDCK cells"
output_unit = "µM"
cmp = "="
quantitative_readout = 18.6

[[record]]
compound = "Cc1cc(C(=O)N[C@@H]2CCC[C@@H](Nc3nc(-c4c[nH]c5c(F)cc(F)cc45)c(C#N)cc3F)C2)on1 (racemic) [Compound 207]"
target_under_test = "MDCK cells"
output_unit = "µM"
cmp = "="
quantitative_readout = 8

[[record]]
compound = "Cn1ccc(C(=O)N[C@@H]2CCC[C@@H](Nc3nc(-c4c[nH]c5c(F)cc(F)cc45)c(C#N)cc3F)C2)n1"
target_under_test = "MDCK cells"
output_unit = "µM"
cmp = ">"
quantitative_readout = 25

[[record]]
compound = "CC(=O)NCc1cc(F)c(N[C@H]2CCC[C@@H](NC(=O)c3cn(C)cn3)C2)nc1-c1c[nH]c2c(F)cc(F)cc12"
target_under_test = "MDCK cells"
output_unit = "µM"
cmp = ">"
quantitative_readout = 25

[[record]]
compound = "Cc1cc(C(=O)N[C@@H]2CCC[C@H](Nc3nc(-c4c[nH]c5c(F)cc(Cl)cc45)ncc3F)C2)on1"
target_under_test = "MDCK cells"
output_unit = "µM"
cmp = "="
quantitative_readout = 3.5

[[record]]
compound = "Cc1cc(C(=O)N[C@@H]2CCC[C@H](Nc3nc(-c4c[nH]c5c(F)cc(F)cc45)ncc3F)C2)on1 [Compound 133]"
target_under_test = "MDCK cells"
output_unit = "µM"
cmp = "="
quantitative_readout = 7.5

[[record]]
compound = "O=C(N[C@@H]1CCC[C@H](Nc2nc(-c3c[nH]c4c(F)cc(Cl)cc34)ncc2F)C1)c1ccccn1 (racemic)"
target_under_test = "MDCK cells"
output_unit = "µM"
cmp = "="
quantitative_readout = 9.5

[[record]]
compound = "N#Cc1cc(F)c(N[C@H]2C3CCC(CC3)[C@@H]2C(=O)O)nc1-c1c[nH]c2c(F)cc(F)cc12 (mixture of isomers) [Compound 216]"
target_under_test = "MDCK cells"
output_unit = "µM"
cmp = "="
quantitative_readout = 0.07

[[record]]
compound = "N#Cc1cc(F)c(N[C@@H]2CCC[C@H](NC(=O)N3CCCC3)C2)nc1-c1c[nH]c2c(F)cc(F)cc12"
target_under_test = "MDCK cells"
output_unit = "µM"
cmp = "="
quantitative_readout = 13.2

[[record]]
compound = "Cc1cc(C(=O)N[C@@H]2CCC[C@H](Nc3nc(-c4c[nH]c5c(F)cc(F)cc45)c(C#N)cc3F)C2)nn1C"
target_under_test = "MDCK cells"
output_unit = "µM"
cmp = ">"
quantitative_readout = 25

[[record]]
compound = "N#Cc1cc(F)c(N[C@H]2C3CCC(CC3)[C@@H]2C(=O)O)nc1-c1c[nH]c2c(F)cc(F)cc12 [Compound 215]"
target_under_test = "MDCK cells"
output_unit = "µM"
cmp = "="
quantitative_readout = 0.15

[[record]]
compound = "Cc1cc(C(=O)N[C@@H]2CCC[C@@H](Nc3nc(-c4c[nH]c5c(F)cc(F)cc45)c(C#N)cc3F)C2)on1 [Compound 220]"
target_under_test = "MDCK cells"
output_unit = "µM"
cmp = "="
quantitative_readout = 3.5

